- assayed-target: T1, human CXCR2 (human, UniProt P25025 1-360)
- T1 construct: also called CXC chemokine receptor 2; hCXCR2
- T1 sequence: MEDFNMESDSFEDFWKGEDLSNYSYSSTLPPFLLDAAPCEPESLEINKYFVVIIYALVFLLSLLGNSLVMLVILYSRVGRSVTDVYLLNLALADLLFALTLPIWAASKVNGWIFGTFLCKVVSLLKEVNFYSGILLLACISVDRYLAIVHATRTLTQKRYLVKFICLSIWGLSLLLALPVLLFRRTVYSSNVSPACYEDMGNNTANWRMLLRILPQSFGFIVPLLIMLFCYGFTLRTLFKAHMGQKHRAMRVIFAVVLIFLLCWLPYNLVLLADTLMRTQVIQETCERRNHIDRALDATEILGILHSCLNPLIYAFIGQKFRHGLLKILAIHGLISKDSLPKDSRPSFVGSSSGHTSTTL
- assay-notes: flow cytometry, CXCR2-transfected Expi293F cells
- Experimental: Harvested cells were resuspended in FACS buffer (1×PBS+0.5% (w/v) bovine serum albumin (BSA)+2 mM EDTA pH 7.2). Approximately 2×10⁵ cells were added per well in a 96-well round-bottomed plate. Cells were pelleted by centrifugation at 400 g for 5 mins at 4° C. and supernatants discarded. 25 μL of each test antibody or control antibody was added to the cells and incubated for 30 minutes at 4° C. Cells were washed twice in 100 μL FACS buffer followed by centrifugation at 400 g for 5 mins at 4° C. […]
quantity-kind: Max binding (MFI)
All answers are understood in MFI, so give the number only.

BKO-4A8-103c (antibody, human IgG4 S228P, lambda, V domains shown, IgG4 S228P, lambda) VH: EVQLLESGGGLVQPGGSLRLSCAASGFTFSSSTQSWVRQPPGKGLEWVSAISGSGGSTYYADSVKGRFTISRDNSKNTLYLQMNSLRAEDTAVYYCAIQMGYWGQGILVTVSS VL: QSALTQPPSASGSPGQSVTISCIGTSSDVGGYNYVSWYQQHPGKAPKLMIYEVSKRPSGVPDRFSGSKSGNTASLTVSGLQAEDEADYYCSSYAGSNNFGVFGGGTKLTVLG	44400

Okay, now this binder:
IN: What value of Max binding (MFI) has been reported for the following binder? BKO-4A8-105c (antibody, human IgG4 S228P, lambda, V domains shown, IgG4 S228P, lambda) VH: EVQLLESGGGLVQPGGSLRLSCAASGFTFSSSTQSWVRQPPGKGLEWVSAISGSGGSTYYADSVKGRFTISRDNSKNTLYLQMNSLRAEDTAVYYCAIQAGYWGQGILVTVSS VL: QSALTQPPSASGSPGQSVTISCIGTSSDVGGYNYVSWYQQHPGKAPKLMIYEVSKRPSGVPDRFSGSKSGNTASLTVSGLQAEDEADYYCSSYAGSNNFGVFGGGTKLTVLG
OUT: 42700
